Below, each entry is listed with its recorded CC50 at 48 h.
method_summary: Cytotoxicity against mouse J774 cells after 48 hrs by MTT assay
Type: cell-based
applied_conditions: read-out: LC50
measured_quantity: CC50 at 48 h

>>> result("CCC(C)OP(=O)(N/N=C/c1cncc(Br)c1)OC(C)CC (stereo unspecified)")
"> 100 µM"
>>> result("CCOP(=O)(N/N=C/c1ccccn1)OCC (mixture of isomers)")
"> 100 µM"
>>> result("CCC(C)OP(=O)(N/N=C/c1cccnc1Br)OC(C)CC (stereo unspecified)")
"> 100 µM"
>>> result("N=C(N)c1ccc(OCCCCCOc2ccc(C(=N)N)cc2)cc1")
"> 100 µM"
>>> result("CC(C)COP(=O)(N/N=C/c1cccnc1)OCC(C)C")
"> 100 µM"
>>> result("CC(C)OP(=O)(N/N=C/c1ccncc1)OC(C)C")
"> 100 µM"
>>> result("CC(C)OP(=O)(N/N=C/c1cccnc1)OC(C)C")
"> 100 µM"
>>> result("CCCCOP(=O)(N/N=C/c1ccccn1)OCCCC (mixture of isomers)")
"> 100 µM"
>>> result("CCCCOP(=O)(N/N=C/c1ccncc1)OCCCC")
"> 100 µM"
>>> result("CC(C)OP(=O)(N/N=C/c1ccccn1)OC(C)C")
"> 100 µM"
>>> result("CCOP(=O)(N/N=C/c1ccncc1)OCC")
"> 100 µM"
